Molecular target: T1, Human MAGEB2 (Melanoma-associated antigen B2) (human, UniProt O15479 1-319)
T1 construct: Intracellular antigen detected by IHC in FFPE material: CHO cells transfected with human MAGEB2 (mCherry vector with Myc/DDK tags, or ORF without tags)
T1 sequence: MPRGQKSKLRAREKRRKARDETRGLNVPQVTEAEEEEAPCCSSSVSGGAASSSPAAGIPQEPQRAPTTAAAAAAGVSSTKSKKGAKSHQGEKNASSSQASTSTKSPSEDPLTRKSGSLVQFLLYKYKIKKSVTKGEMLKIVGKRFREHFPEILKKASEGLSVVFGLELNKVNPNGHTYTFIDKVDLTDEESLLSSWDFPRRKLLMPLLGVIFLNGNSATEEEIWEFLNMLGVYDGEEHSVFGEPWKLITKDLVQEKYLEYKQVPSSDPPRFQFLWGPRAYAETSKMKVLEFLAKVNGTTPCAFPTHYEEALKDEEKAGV
Assay: IHC on FFPE NCI-H82 cells (endogenous MAGEB2)
Consider the following binders; for each one, report its IHC % Frequency.
Answer with a number only, understood to be in %.

Entry 1J15 (antibody, IgG1, V domains shown, Rabbit monoclonal IgG1; Tested as supernatant and as small batch purified antibody; also called MAGE-B2 (IJ15); anti-MAGEB2 antibody 1J15) VH: QSLEESGGGLVQPEGSLTLTCTAFGFTLNNYYICWVRQAPGKGLEWIACIDNANGRTYYASWAKGRFTISKTSSTTVTLQMTSLTAADTATYFCARSLSTPLWGPGTLVTVSS VL: DIVMTQTPASVEAAVGGTVTIKCQASQSISSYLSWYQQKPGQPPKLLIYRASTLASGVPSRFRGSGSGTQFTLTISDLECADAATYYCQSYDDSSDNNFFYGFGGGTEVVVR — recorded IHC % Frequency = 0

According to the records, this binder 1I14 (antibody, V domains shown, also called MAGE-B2 (1i14)) VH: QSVEESGGRLVTPGTPLTLTCTISGFSLSSYAMSWVRQAPGKGLEWIGSIGGGGSAVYASWAKGRFTISKTSTTVDLRITSPTTEDTAMYFCGRGFYSIDLWGPGTLVTVSS VL: DVVMTQTPASVEATVGGTVTIKCQSSQSVYDNNALAWYQQNAGQRPRLLIYGASTLASGVPSRFSASGSGTEFTLTISDLECADAATYYCQCTYYVSSYQNDFGGGTEVVVKG displays IHC % Frequency of 0

IHC % Frequency recorded for this binder, 1C3 (antibody, V domains shown, also called MAGE-B2 (IC3); anti-MAGEB2 antibody 1C3) VH: QSLEESGGGLVQPEGSLTLTCTAFGVTLTNYYICWVRQAPGKGLEWVGCIDNANGRTYYASWAKGRFTISKTSSTTGTLQMTSLTAADTATYFCARSLATPLWGPGTLVTVSS VL: DIVMTQTPSSVEAAVGGTVTIKCQASQNISSYLAWYQQKPGQPPKLLIYRASTLASGVPSRFKGSGSGTQFTLTISDLECADAATYYCQSYDDSRSSNFFYAFGGGTEVVVKG , is 0
